- ASSAY DETAILS: in vitro
- EXPERIMENTAL SETUP: human, hek293t cells
In this section we review reported viability at 48 h, 25 µM values for a set of compounds.
Report only the number, with the unit % understood.

Consider the worked cases shown below.
{"columns": ["COMPOUND", "UNIT NAME", "viability at 48 h, 25 µM"],
 "data": [
  ["CC(Cl)C(=O)N1CCN(Cc2ccnn2C)CC1 (centres unmarked) [7-I22]", "%", 99.9],
  ["CC(Cl)C(=O)Nc1nc2ccccc2s1 (centres unmarked) [5-K05]", "%", 59.9],
  ["C[C@H](NC(=O)CCl)C(=O)N1CCCCC1 [7-L14]", "%", 70.1],
  ["C=CC(=O)N(CC)CC(=O)N1CC[S+]([O-])C(C)(C)CC1 (centres unmarked) [3-K21]", "%", 40.1],
  ["CC(Cl)C(=O)Nc1cc(Cl)c(Cl)cc1Cl (centres unmarked) [4-N13]", "%", 71.7],
  ["CC(Cl)C(=O)NCC(=O)N(C)Cc1cccnc1 (centres unmarked) [7-P15]", "%", 91.3]
]}

Write down viability at 48 h, 25 µM measured for item C=CC(=O)N1CCC(CC(C)(C)C)C1 (centres unmarked) [2-O19]
147

Write down viability at 48 h, 25 µM measured for item O=C(CCl)N1CCC1c1cccc(F)c1 (centres unmarked) [5-K10]
28.5

Write down viability at 48 h, 25 µM measured for item COc1cc(C=C(C#N)C(N)=O)cc(OC)c1OC [9-K13]
129

Write down viability at 48 h, 25 µM measured for item CN(CC(=O)NC1CCC(O)CC1)C(=O)CCl (centres unmarked) [7-L08]
0.707

Write down viability at 48 h, 25 µM measured for item CCc1ccccc1NC(=O)CN(C)C(=O)C(C)Cl (centres unmarked) [4-P05]
81
